Data origin: patent US20260069689A1

- experimentalSystem: SARS-COV-2 RBD extracellular domain expressed with a C-terminal myc-myc-hexahistidine tag (SARS-CoV-2)
- assayNotes: SPR (Biacore), mAb captured by anti-human Fc, RBD-mmH in solution, 25 C
Would you kindly list kon for each of these binders?
Hi! Could you send only the number? It should be in M⁻¹ s⁻¹, unit omitted.

Which kon is listed for mAb15162 (antibody, V domains shown) VH: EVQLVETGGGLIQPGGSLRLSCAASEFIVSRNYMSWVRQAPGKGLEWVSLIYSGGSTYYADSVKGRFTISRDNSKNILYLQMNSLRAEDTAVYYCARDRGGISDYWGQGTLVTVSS VL: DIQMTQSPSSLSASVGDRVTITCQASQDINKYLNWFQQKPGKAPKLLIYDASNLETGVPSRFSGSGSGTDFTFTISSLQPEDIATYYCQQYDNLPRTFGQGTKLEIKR ? 116000

Would you kindly repeat that for mAb14315 (antibody, V domains shown) VH: QVQLVQSGAEVKKPGSSVKVSCKASGDTFSTYAINWVRQAPGQGLEWMGRFIHIFGTANYAQKFQGRVTITADESTSTAYMELRSLRSEDTAVYYCARDGVDYGDYRPDYWGQGTLVTVSS VL: EIVLTQSPGTLSLSPGERATLSCRASQSVSSNYLAWYQQKPGQAPRLLIYGASSRATGIPERFSGSGSGTDFTLTISRLEPEDFAVYYCQQYGSSLYTFGQGTKLEIKR ? 407000

Would you kindly repeat that for mAb14285 (antibody, V domains shown) VH: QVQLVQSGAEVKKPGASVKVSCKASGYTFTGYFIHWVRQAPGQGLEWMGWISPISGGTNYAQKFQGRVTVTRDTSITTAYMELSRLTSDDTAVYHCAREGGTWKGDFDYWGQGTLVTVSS VL: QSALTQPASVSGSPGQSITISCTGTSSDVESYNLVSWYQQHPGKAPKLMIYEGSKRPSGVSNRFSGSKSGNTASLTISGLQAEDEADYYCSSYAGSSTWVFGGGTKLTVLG ? 1.8e+06

Would you kindly repeat that for mAb15166 (antibody, V domains shown) VH: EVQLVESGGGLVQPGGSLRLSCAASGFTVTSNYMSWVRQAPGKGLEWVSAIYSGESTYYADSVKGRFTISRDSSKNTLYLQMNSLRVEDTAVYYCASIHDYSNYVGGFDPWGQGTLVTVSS VL: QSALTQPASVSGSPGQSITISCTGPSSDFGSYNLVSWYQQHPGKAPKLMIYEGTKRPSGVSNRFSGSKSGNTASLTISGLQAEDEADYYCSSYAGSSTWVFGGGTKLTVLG ? 246000

Would you kindly repeat that for mAb14286 (antibody, V domains shown) VH: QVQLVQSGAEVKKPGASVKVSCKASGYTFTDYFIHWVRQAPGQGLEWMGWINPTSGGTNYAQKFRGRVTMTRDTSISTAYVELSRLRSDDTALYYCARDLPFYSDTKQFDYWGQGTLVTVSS VL: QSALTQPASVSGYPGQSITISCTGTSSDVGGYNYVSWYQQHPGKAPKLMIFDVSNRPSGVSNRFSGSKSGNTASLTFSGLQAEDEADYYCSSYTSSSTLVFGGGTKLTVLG ? 3.23e+06
